Data origin, for the record: patent US20120094909A1

Assignment: determine reported LDLR Depletion EC50 for the given binders.
# assayTarget: human PCSK9 (proprotein convertase subtilisin kexin type 9) (human, UniProt Q8NBP7 31-692)
# Sequence (Q8NBP7 31-692 limits assumed): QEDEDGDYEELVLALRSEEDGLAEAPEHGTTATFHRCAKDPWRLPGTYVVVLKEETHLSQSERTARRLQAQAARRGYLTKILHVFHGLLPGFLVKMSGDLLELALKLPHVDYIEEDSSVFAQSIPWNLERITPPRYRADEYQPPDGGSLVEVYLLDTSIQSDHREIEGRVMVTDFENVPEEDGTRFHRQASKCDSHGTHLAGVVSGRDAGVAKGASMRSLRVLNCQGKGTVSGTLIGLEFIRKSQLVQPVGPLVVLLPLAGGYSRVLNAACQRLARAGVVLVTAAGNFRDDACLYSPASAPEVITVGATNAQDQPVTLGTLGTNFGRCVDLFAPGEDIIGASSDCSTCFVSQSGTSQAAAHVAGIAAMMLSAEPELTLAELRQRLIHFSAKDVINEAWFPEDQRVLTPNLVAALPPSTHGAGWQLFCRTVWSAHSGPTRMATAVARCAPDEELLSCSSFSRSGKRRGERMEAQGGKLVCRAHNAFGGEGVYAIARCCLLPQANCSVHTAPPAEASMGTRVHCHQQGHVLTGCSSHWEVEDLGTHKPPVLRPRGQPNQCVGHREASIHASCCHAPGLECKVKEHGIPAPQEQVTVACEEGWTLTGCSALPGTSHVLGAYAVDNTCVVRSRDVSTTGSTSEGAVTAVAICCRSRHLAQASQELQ
# assayInfo: cell-based or functional assay
Give bare numbers, in nM.

Examples with their reported LDLR Depletion EC50 follow.
Return value of LDLR Depletion EC50 for input 2011H05 (designed binder, also called ATI001091) MGVSDVPRDLEVVAATPTSLLISWVPSSHAYGYYRITYGETGGNSPVQEFTVPVGVGTATISGLKPGVDYTITVYAVEYAFEGAGYYHRPISINYRTEIDKPSQHHHHHH , no commentary.
12

Return value of LDLR Depletion EC50 for input 2013E01 (designed binder, unmodified (not PEGylated) Adnectin; also called ATI001081) MGVSDVPRDLEVVAATPTSLLISWVPPSDDYGYYRITYGETGGNSPVQEFTVPIGKGTATISGLKPGVDYTITVYAVEFPWPHAGYYHRPISINYRTEIDKPSQHHHHHH , no commentary.
10

Return value of LDLR Depletion EC50 for input 1923B02(N82I) (designed binder) MGVSDVPRDLEVVAATPTSLLISWTPPPKGYGYYRITYGETGGNSPVQEFTVPVGEGTATISGLKPGVDYTITVYAVEYTYIGAGYYHRPISINYRTGSGSHHHHHH , no commentary.
14

Return value of LDLR Depletion EC50 for input 1923B02(N82E) (designed binder) MGVSDVPRDLEVVAATPTSLLISWTPPPKGYGYYRITYGETGGNSPVQEFTVPVGEGTATISGLKPGVDYTITVYAVEYTYEGAGYYHRPISINYRTGSGSHHHHHH , no commentary.
28

Return value of LDLR Depletion EC50 for input 2012A04 (designed binder) MGVSDVPRDLEVVAATPTSLLISWRPPSNGHGYYRITYGETGGNSPVQEFTVPVNEGTATISGLKPGVDYTITVYAVEFPFKWSGYYHRPISINYRTEIDKPSQHHHHHH , no commentary.
12

Give LDLR Depletion EC50 for each of the items listed below.
1. 1922G04(R25E) (designed binder) MGVSDVPRDLEVVAATPTSLLISWEPPSHAYGYYRITYGETGGNSPVQEFTVPIGKGTATISGLKPGVDYTITVYAVEYPWKGSGYYHRPISINYRTGSGSHHHHHH
2. 1922G04 (designed binder, also called ATI001057; ATI-1057) MGVSDVPRDLEVVAATPTSLLISWRPPSHAYGYYRITYGETGGNSPVQEFTVPIGKGTATISGLKPGVDYTITVYAVEYPWKGSGYYHRPISINYRTEIDKPSQHHHHHH
3. 2011H05(V23E) (designed binder) MGVSDVPRDLEVVAATPTSLLISWEPSSHAYGYYRITYGETGGNSPVQEFTVPVGVGTATISGLKPGVDYTITVYAVEYAFEGAGYYHRPISINYRTEIDKPSQHHHHHH
4. 1923B02(T80A) (designed binder) MGVSDVPRDLEVVAATPTSLLISWTPPPKGYGYYRITYGETGGNSPVQEFTVPVGEGTATISGLKPGVDYTITVYAVEYAYNGAGYYHRPISINYRTGSGSHHHHHH
5. 1922G04(R25S) (designed binder) MGVSDVPRDLEVVAATPTSLLISWSPPSHAYGYYRITYGETGGNSPVQEFTVPIGKGTATISGLKPGVDYTITVYAVEYPWKGSGYYHRPISINYRTGSGSHHHHHH
6. 1922G04(R25D) (designed binder) MGVSDVPRDLEVVAATPTSLLISWDPPSHAYGYYRITYGETGGNSPVQEFTVPIGKGTATISGLKPGVDYTITVYAVEYPWKGSGYYHRPISINYRTGSGSHHHHHH
7. 2011H05(V23D) (designed binder) MGVSDVPRDLEVVAATPTSLLISWDPSSHAYGYYRITYGETGGNSPVQEFTVPVGVGTATISGLKPGVDYTITVYAVEYAFEGAGYYHRPISINYRTEIDKPSQHHHHHH
8. 1813E02 (designed binder) MGVSDVPRDLEVVAATPTSLLISWSPPANGYGYYRITYGETGGNSPVQEFTVPVGRGTATISGLKPGVDYTITVYAVEYTYKGSGYYHRPISINYRTEIDKPSQHHHHHH

[29, 10, 12, 42, 21, 29, 18, 16]

Return value of LDLR Depletion EC50 for input 1784F03 (designed binder) MGVSDVPRDLEVVAATPTSLLISWRPPIHAYGYYRITYGETGGNSPVQEFTVPIVEGTATISGLKPGVDYTITVYAVEYTFKHSGYYHRPISINYRTEIDKPSQHHHHHH , no commentary.
26
